Biological target: E. coli DNA gyrase (Escherichia coli)
Construct: purchased Inspiralis
Assay: biochemical
Conditions: E. coli DNA gyrase; read-out: IC50
Property: IC50; scope: individual molecules
measured metric: IC50 (nM)

* Cc1[nH]c(C(=O)Nc2ccc(-c3noc(=O)[nH]3)cc2N2CCCC(N)C2)c(Cl)c1Cl.Cl (stereo not shown) | 2.49
* Cc1[nH]c(C(=O)Nc2ccc(C(=O)NS(C)(=O)=O)cc2N2CCOCC2)c(Cl)c1Cl | 243
* Cc1[nH]c(C(=O)Nc2ccc(-n3nn[nH]c3=O)cc2N2CCC(N)CC2)c(Cl)c1Cl.Cl | 3.96
* Cl.N[C@@H]1CCN(c2cc(C(=O)NCC(=O)O)ccc2NC(=O)c2cc(Br)c(Br)[nH]2)C1 | 2380
* Cc1[nH]c(C(=O)Nc2ccc(-c3n[nH]c(=O)o3)cc2OCC2CCCNC2)c(Cl)c1Cl.Cl (stereo not shown) | 0.75
* Cc1[nH]c(C(=O)Nc2ccc(-c3n[nH]c(=O)o3)cc2N2CCC[C@H](N)C2)c(Cl)c1Cl.Cl | 27.2
* Cc1[nH]c(C(=O)Nc2ccc(-c3noc(=O)[nH]3)cc2N2CCCC2)c(Cl)c1Cl | 12.6

====

Test system: S. aureus ATCC 29213
Experiment: Microbroth dilution MIC (CLSI)
Assay type: cell-based
Conditions: Staphylococcus aureus, ATCC29213; S. aureus ATCC 29213; read-out: MIC
measured metric: MIC

- Cc1[nH]c(C(=O)Nc2ccc(-c3n[nH]c(=O)o3)cc2NC2CCNCC2)c(Cl)c1Cl.Cl [Example 19]: > 64 µg/mL
- Cc1[nH]c(C(=O)Nc2ccc(-c3n[nH]c(=O)o3)cc2OCCC2CCNCC2)c(Cl)c1Cl.Cl [Example 29]: ≥ 32 µg/mL
- Cc1[nH]c(C(=O)Nc2ccc(C(=O)O)cc2N2CCC[C@H](N)C2)c(Cl)c1Cl.Cl [Example 14]: ≥ 64 µg/mL
- Cc1[nH]c(C(=O)Nc2ccc(-c3noc(=O)[nH]3)cc2N2CCCC2)c(Cl)c1Cl [Example 6]: > 64 µg/mL
- Cc1[nH]c(C(=O)Nc2ccc(-c3n[nH]c(=O)o3)cc2N2CCOCC2)c(Cl)c1Cl [Example 42]: 0.25 µg/mL
- Cc1nnc(-c2ccc(NC(=O)c3[nH]c(C)c(Cl)c3Cl)c(OC(C)C)c2)o1 [Example 21]: ≥ 64 µg/mL
- Cc1[nH]c(C(=O)Nc2ccc(-c3n[nH]c(=O)o3)cc2N2CCOC(C)C2)c(Cl)c1Cl (stereo not shown) [Example 43]: ≥ 64 µg/mL
- Cc1[nH]c(C(=O)Nc2ccc(-c3n[nH]c(=O)o3)cc2OC2CCNC2)c(Cl)c1Cl.Cl (stereo not shown) [Example 26]: ≥ 32 µg/mL
- Cc1[nH]c(C(=O)Nc2ccc(C(=O)NCc3n[nH]c(=O)o3)cc2N2CCNCC2)c(Cl)c1Cl.Cl [Example 40]: ≥ 64 µg/mL
- Cc1[nH]c(C(=O)Nc2ccc(-c3n[nH]c(=O)o3)cc2N2CCC[C@H](N)C2)c(Cl)c1Cl.Cl [Example 18]: 2 µg/mL
- Cl.O=C(O)CNC(=O)c1ccc(NC(=O)c2cc(Br)c(Br)[nH]2)c(N2CCNCC2)c1 [Example 39]: ≥ 64 µg/mL
- Cc1[nH]c(C(=O)Nc2ccc(-n3nn[nH]c3=O)cc2N2CCN(c3ccccc3)CC2)c(Cl)c1Cl [Example 24]: ≥ 32 µg/mL
- Cc1[nH]c(C(=O)Nc2ccc(C(=O)O)cc2NC2CCNCC2)c(Cl)c1Cl.Cl [Example 15]: > 64 µg/mL
- Cc1[nH]c(C(=O)Nc2ccc(-c3n[nH]c(=O)o3)cc2OCc2ccccc2)c(Cl)c1Cl [Example 11]: ≥ 32 µg/mL
- Cc1[nH]c(C(=O)Nc2ccc(-c3noc(=O)[nH]3)cc2N2CCCC(N)C2)c(Cl)c1Cl.Cl (stereo not shown) [Example 2]: > 64 µg/mL
- Cc1[nH]c(C(=O)Nc2ccc(C(=O)O)cc2N2CCN(c3ccccc3)CC2)c(Cl)c1Cl [Example 16]: > 64 µg/mL
